- Tested on: UACC-257 melanoma
- Test name: NCI-60 one-dose screen, 48 h
- Recorded conditions: 10 µM unless noted
- Experimental: Cells are grown in 96 well plates and exposed to the test compound for 48 hours. Compounds are tested at a single concentration, which is 10^-5 M for most compounds. The reported endpoint is percent growth (GI% or GIPRCNT), where numbers from 0 - 100% represent growth inhibition, and numbers from -100% - 0 represent cell death. For example, a value of 40 represents 60% growth inhibition. A value of 0 means no net growth occurred over the course of the experiment. […]
About 83,000 compounds went through this panel and 20% of them were active in at least one assay; those are over-represented in the sample as a whole. Active and inactive are the calls of the source. How the source made its calls: active means growth percent below 10; inactive means the rest.
Classes to choose from: active, inactive

## Task Which outcome did this test record for the compound `COc1ccc(/C=C/C(=O)c2ccc(NC(=O)CSc3nnc(-c4ccc(OC)c(OC)c4)n3-c3ccccc3)cc2)cc1` ?
## Result inactive

## Task Fill in: this test's call for `COC(=O)/C=C1\SC(=Nc2ccc(F)cc2)N(CCc2c[nH]c3ccccc23)C1=O` is ___
## Result inactive

Further cases:
## Task What outcome does the record of this test show for `Nc1ccc(C(=O)Nc2cccc(C(=O)Nc3ccc4c(O)c(N=Nc5ccc(N=Nc6ccc(S(=O)(=O)O)cc6)cc5)c(S(=O)(=O)O)cc4c3)c2)cc1` ?
## Result inactive

## Task Outcome? Cc1ccc(SC2c3ccc(C)cc3Oc3nc(N)c(C#N)c(N)c32)cc1 (configuration not stated)
## Result inactive

## Task For `CCCCOc1nc2ccc(C)cc2cc1/C=C/C(=O)/C=C/c1ccc2c(c1)OCO2` , which call appears in the assay record?
## Result inactive

## Task Identify the outcome logged in this assay for the compound shown: `Cc1cc(C)n(-c2nc(-c3cccs3)c(C#N)c(=O)[nH]2)n1`
## Result inactive

## Task What call does the record list for `CCOC(=O)c1c(C)nc2c(c1N)/C(=C/c1cccs1)C(=O)N2Cc1ccccc1` ?
## Result inactive

---

- System: SW-620 colon
- Test name: NCI-60 one-dose screen, 48 h (100 = growth as untreated, 0 = no growth, -100 = all killed)
- Recorded conditions: 10 µM unless noted
Compounds without any hit were thinned out: in the full panel of roughly 83,000, 20% have a hit.
Endpoint: growth (%)
Unit % implied. Number only.

## Task Return reported growth; argument: `C=CCn1c(SCC(=O)Nc2ccc(C(=O)/C=C/c3cc(OC)c(OC)c(OC)c3)cc2)nnc1-c1ccccc1`
## Result 73.2

## Task Field request: growth | item: `CCOCc1nc2ccccc2c(=O)[nH]1`
## Result 97.1

## Task Would you kindly share the measured growth for COc1ccc(C2N(c3cc(OC)c(OC)c(OC)c3)C(=O)C2(F)F)cc1F (stereo not given) ?
## Result 21.2

## Task Please report the recorded growth for O=C1Nc2ccccc2C12C=C(c1ccccc1)Nc1c2c(-c2ccccc2)nn1-c1ccccc1 (stereo not given) .
## Result 75.6

Shifting focus to the compound that follows.
## Task Find the recorded growth belonging to `COc1ccc2[nH]c(-c3ccccc3)c(C=C(C#N)C#N)c2c1` and report it.
## Result 25.1

---

- System: OVCAR-8 ovarian
- Test name: NCI-60 one-dose screen, 48 h (100 = growth as untreated, 0 = no growth, -100 = all killed)
- Recorded conditions: 10 µM unless noted
- Description: Growth inhibition of the OVCAR-8 human tumor cell line is measured as a screen for anti-cancer activity. Cells are grown in 96 well plates and exposed to the test compound for 48 hours. Compounds are tested at a single concentration, which is 10^-5 M for most compounds. The reported endpoint is percent growth (GI% or GIPRCNT), where numbers from 0 - 100% represent growth inhibition, and numbers from -100% - 0 represent cell death. For example, a value of 40 represents 60% growth inhibition. […]
The panel holds about 83,000 compounds, 20% with a hit somewhere; the sample as a whole holds those more often.
Response field label: string, one of class 1 (growth strictly below 20%) or class 0.

## Task I wonder whether CC(=O)ON1CCCC(P(=O)(OCOC(=O)C(C)(C)C)OCOC(=O)C(C)(C)C)C1=O (stereo not drawn) has growth below 20%. Can you tell?
## Result class 1

Next:
## Task Please indicate whether the reported growth of `CNC(=O)c1cc(Oc2ccc3c(c2)sc2nc(-c4ccc(NC(C)=O)cc4)cn23)ccn1` is strictly below 20%.
## Result class 0

## Task Identify whether the compound `C=C(C)[C@@H]1CC[C@]2(C(=O)OCCOCCOCC[P+](c3ccccc3)(c3ccccc3)c3ccccc3)CC[C@]3(C)[C@H](CC[C@@H]4[C@@]5(C)CC[C@H](OC(=O)C(Cl)Cl)C(C)(C)[C@@H]5CC[C@]43C)[C@@H]12` records growth below 20%.
## Result class 1

## Task Take the compound O=c1c2ccccc2n(CC(O)CN2CCCC2)c2c(Br)cccc12 (stereo not drawn) and say whether its growth is less than 20%.
## Result class 0

---

- System: HS 578T breast
- Test name: NCI-60 one-dose screen, 48 h (100 = growth as untreated, 0 = no growth, -100 = all killed)
- Recorded conditions: 10 µM unless noted
- Description: Growth inhibition of the HS 578T human tumor cell line is measured as a screen for anti-cancer activity. Cells are grown in 96 well plates and exposed to the test compound for 48 hours. Compounds are tested at a single concentration, which is 10^-5 M for most compounds. The reported endpoint is percent growth (GI% or GIPRCNT), where numbers from 0 - 100% represent growth inhibition, and numbers from -100% - 0 represent cell death. For example, a value of 40 represents 60% growth inhibition. […]
Compounds without any hit were thinned out: in the full panel of roughly 83,000, 20% have a hit.
Endpoint: growth (%)
Answer with a number only, understood to be in %.

Look over these answered cases.
## Task Checklist item: growth tested on HS 578T breast, entry `C=C1C(=O)O[C@H]2[C@H]1CC/C(COC(=O)CCC(=O)OC/C1=C/CC[C@@]3(C)O[C@H]3[C@H]3OC(=O)C(=C)[C@@H]3CC1)=C\CC[C@@]1(C)O[C@@H]21` , value?
## Result 79.6

## Task Reported growth for HS 578T breast, given `COC(=O)/C=C1\SC(=Nc2ccc(C(F)(F)F)cc2)N(CCc2c[nH]c3ccccc23)C1=O` ?
## Result -2.51

## Task API: value(readout= growth, system= HS 578T breast, query= CCCCC(=O)Nc1c(C(=O)Nc2ccccc2)sc2nc3c(cc12)C(OC(=O)CCCC)CCC3 (stereo not drawn) )
## Result 89.5

## Task Return growth measured with HS 578T breast given this molecule: `COc1cccc(NC(=O)Nc2ccc(Nc3ncnc4[nH]c(C)c(C)c34)cc2)c1`
## Result 83.9

## Task Item: `CCC[S@](=O)c1ccc2nc(NC(=O)OC)[nH]c2c1` Test system: HS 578T breast Read-out: growth Value: ?
## Result 102

***
## Task GET /values?readout=growth&system=HS 578T breast&item= `C=C(C)[C@@H]1CC[C@]2(C(N)=O)CC[C@]3(C)[C@H](CC[C@@H]4[C@@]5(C)CCCNC(C)(C)[C@@H]5CC[C@]43C)[C@@H]12`
## Result 74.9

---

- System: SNB-19 CNS
- Test name: NCI-60 one-dose screen, 48 h (100 = growth as untreated, 0 = no growth, -100 = all killed)
- Recorded conditions: 10 µM unless noted
Compounds without any hit were thinned out: in the full panel of roughly 83,000, 20% have a hit. Calls of active or inactive are those of the source. The calls were made as follows: active = growth percent below 10; inactive = the rest.
Endpoint: growth

## Task Reported growth for CC(C)Cc1cc(CNC(=O)C2[C@H]3CN(C(=O)c4ccccc4)C[C@@H]23)nn1-c1ccccc1 (stereo not given in full) : what is it?
## Result 107% (inactive)

## Task State the recorded growth for this entry: COc1ccc(C2C(c3ccccc3)C(=O)N2c2cc(OC)c(OC)c(OC)c2)cc1I (stereo not given)
## Result 33.4% (inactive)

## Task Data request, read-out growth, for `CC[C@H](Nc1ncnc2nc[nH]c12)c1nc2cccc(CC(=O)c3ccc(C(=O)NO)cc3)c2c(=O)n1-c1ccccc1`
## Result 93.2% (inactive)

## Task Given the entry `Nc1ccc2c(c1)C(=O)C(=O)c1c-2nc2ccccn12` , report its measured growth.
## Result 9.2% (active)

Now, please, on to the next compound.
## Task Item `CC(=O)c1ccc(NC(=O)CSc2nnc(-c3cc(-c4ccc(C)cc4)nc4ccccc34)o2)cc1` has what recorded growth?
## Result 43.2% (inactive)

---

- System: RPMI-8226 leukemia
- Test name: NCI-60 one-dose screen, 48 h (100 = growth as untreated, 0 = no growth, -100 = all killed)
- Recorded conditions: 10 µM unless noted
The panel holds about 83,000 compounds, 20% with a hit somewhere; the sample as a whole holds those more often. The source made the active and inactive calls. How the source made its calls: active means growth percent below 10; inactive means the rest.
Listed next: entries and their corresponding growth.

## Task # query: growth of entry `CCC1=C[C@H]2CN(CCc3c([nH]c4ccccc34)[C@@](C(=O)OC)(c3cc4c(cc3OC)N(C)[C@H]3[C@@](O)(C(=O)OC)[C@H](OC(C)=O)[C@]5(CC)[C@@H]6C[C@@H]6CN6CC[C@]43[C@@H]65)C2)C1`
## Result -25.3% (active)

## Task // lookup growth for `C#C[C@@]1(O)[C@@H](CO)O[C@@H](n2cc(F)c3c(N)ncnc32)[C@@H]1O`
## Result 5.11% (active)

## Task Could you share which growth value was measured for `Clc1ccc2c(NCCCNC3CCCCC3)ccnc2c1` ?
## Result 82% (inactive)

## Task I am curious: what growth value has been reported for `Cc1cccc(C)c1NCc1nnc(-c2ccc(O)cc2)o1` ?
## Result 95.5% (inactive)

## Task Query (compound): `CNS(=O)(=O)c1cccc(-c2ccc3c4c(n(C)c(=O)c3c2)-c2ccccc2C4=O)c1` ; field requested: growth
## Result 30.5% (inactive)

---
## Task Which measured growth value corresponds to `N#Cc1ccc(N2Cc3cc(Cl)ccc3OC3=C2C(=O)N(Cc2ccccc2)C3=O)cc1` ?
## Result -23.3% (active)

## Task Can you share its growth? I mean this compound: `c1ccc(-c2n(Cc3ccc4ccccc4n3)cc[n+]2Cc2ccc3ccccc3c2)cc1`
## Result -2.59% (active)

## Task Dear colleague, I am looking for the recorded growth of the following compound: `O=C1[C@@H](OS(=O)(=O)CC(F)(F)F)[C@H](c2ccc(F)cn2)N1c1cc2c3ccccc3ccc2c2ccccc12`
## Result 25.1% (inactive)

## Task Using the record for `CCN1CCN(c2ccc(NC(=O)Nc3nc4ccc(-c5ccccc5OC)cc4s3)cc2)CC1` , report its growth.
## Result -33% (active)
